target: BCL-2 recombinant protein (Homo sapiens, UniProt P10415); test: Cell free Bcl-2:Bak affinity assay (Bcl-2 Bak), HTRF competition of FAM-Bak peptide; format: binding; settings: 1 μM compound, 4 nM BCL-2 recombinant protein, 100 nM FAM-Bak, read-out: potency (% inhibition at 1 μM)
Sequence (P10415 whole entry): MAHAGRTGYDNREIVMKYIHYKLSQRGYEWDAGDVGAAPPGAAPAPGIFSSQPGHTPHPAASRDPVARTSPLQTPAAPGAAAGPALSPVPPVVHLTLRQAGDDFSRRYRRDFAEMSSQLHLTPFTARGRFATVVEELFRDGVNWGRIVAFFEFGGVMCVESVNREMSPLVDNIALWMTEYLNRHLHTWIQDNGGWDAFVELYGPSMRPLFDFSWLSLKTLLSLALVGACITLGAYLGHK
endpoint: inhibition at 1 µM

Before answering, review these 5 worked examples.
1. CC1(C)CCC(CN2CCN(c3ccc(S(=O)(=O)NC(=O)c4ccc(Cl)c(Cl)n4)cc3)CC2)=C(c2ccc(Cl)cc2)C1 [Example 20] : 50 to 90%
2. CC1(C)CCC(CN2CCN(c3ccc(S(=O)(=O)NC(=O)c4ccc(F)c(Cl)n4)cc3)CC2)=C(c2ccc(Cl)cc2)C1 [Example 1] : 50 to 90%
3. Cc1c(C(=O)NS(=O)(=O)c2ccc(N3CCN(CC4=C(c5ccc(Cl)cc5)CC(C)(C)CC4)CC3)cc2)nnn1Cc1ccccc1 [Example 4] : 50 to 90%
4. CC1(C)CCC(CN2CCN(c3ccc(S(=O)(=O)NC(=O)c4ccc(F)c(-c5cnc6c(c5)CC(=O)N6)n4)cc3)CC2)=C(c2ccc(Cl)cc2)C1 [Example 47] : 50 to 90%
5. CC1(C)CCC(CN2CCN(c3ccc(S(=O)(=O)NC(=O)c4ccc(F)c(OCc5ccccc5)c4)cc3)CC2)=C(c2ccc(Cl)cc2)C1 [Example 53] : 50 to 90%

Give measured inhibition at 1 µM for every item shown.
1. CC1(C)CCC(CN2CCN(c3ccc(S(=O)(=O)NC(=O)c4ccc(F)c(-c5ccncc5)n4)cc3)CC2)=C(c2ccc(Cl)cc2)C1 [Example 61]
2. CC1(C)CCC(CN2CCN(c3ccc(S(=O)(=O)NC(=O)C4CC=CCC4)cc3)CC2)=C(c2ccc(Cl)cc2)C1 (stereo not shown) [Example 28]
3. CC1(C)CCC(CN2CCN(c3ccc(S(=O)(=O)NC(=O)c4ccc(OCc5ccccc5)c([N+](=O)[O-])c4)cc3)CC2)=C(c2ccc(Cl)cc2)C1 [Example 36]
4. COCc1cccc(C(=O)NS(=O)(=O)c2ccc(N3CCN(CC4=C(c5ccc(Cl)cc5)CC(C)(C)CC4)CC3)cc2)c1 [Example 18]

[A]
1. < 50%
2. < 50%
3. 50 to 90%
4. 50 to 90%

Give measured inhibition at 1 µM for every item shown.
1. CC1(C)CCC(CN2CCN(c3ccc(S(=O)(=O)NC(=O)c4cncc([N+](=O)[O-])c4)cc3)CC2)=C(c2ccc(Cl)cc2)C1 [Example 23]
2. CC1(C)CCC(CN2CCN(c3ccc(S(=O)(=O)NC(=O)c4ccc5ncccc5c4)cc3)CC2)=C(c2ccc(Cl)cc2)C1 [Example 5]

[A]
1: 50 to 90%; 2: 50 to 90%
